All figures here come from patent US20110097323A1.

Hi there, I'd appreciate the recorded binding relative to wild-type Fc (fold) for every entry that follows.
Target: CD16A F158 (human, UniProt P08637 17-208, limits assumed)
Sequence (P08637 17-208 limits assumed): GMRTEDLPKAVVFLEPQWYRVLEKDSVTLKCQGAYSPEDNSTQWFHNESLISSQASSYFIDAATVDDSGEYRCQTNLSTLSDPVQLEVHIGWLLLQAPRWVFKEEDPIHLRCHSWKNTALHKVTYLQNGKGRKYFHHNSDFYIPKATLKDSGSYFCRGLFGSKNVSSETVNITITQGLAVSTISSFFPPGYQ
Test: Table 3; relative to wild-type Fc; method not stated
One number for each entry.

Some solved entries appear below for comparison.
Provide measured binding relative to wild-type Fc (fold) value, entry: Fc variant F243L R292P V305I (other, UniProt P01857-1 99-330, looked up, name in EU numbering, domain: Fc region; positions are EU index) EPKSCDKTHTCPPCPAPELLGGPSVFLLPPKPKDTLMISRTPEVTCVVVDVSHEDPEVKFNWYVDGVEVHNAKTKPPEEQYNSTYRVVSILTVLHQDWLNGKEYKCKVSNKALPAPIEKTISKAKGQPREPQVYTLPPSRDELTKNQVSLTCLVKGFYPSDIAVEWESNGQPENNYKTTPPVLDSDGSFFLYSKLTVDKSRWQQGNVFSCSVMHEALHNHYTQKSLSLSPGK
1.43

Identify measured binding relative to wild-type Fc (fold) corresponding to Fc variant D270E G316D R416G (other, UniProt P01857-1 99-330, looked up, name in EU numbering, domain: Fc region; positions are EU index) EPKSCDKTHTCPPCPAPELLGGPSVFLFPPKPKDTLMISRTPEVTCVVVDVSHEEPEVKFNWYVDGVEVHNAKTKPREEQYNSTYRVVSVLTVLHQDWLNDKEYKCKVSNKALPAPIEKTISKAKGQPREPQVYTLPPSRDELTKNQVSLTCLVKGFYPSDIAVEWESNGQPENNYKTTPPVLDSDGSFFLYSKLTVDKSGWQQGNVFSCSVMHEALHNHYTQKSLSLSPGK
2.49

Consider the additional binder presented here.
Give the reported value of binding relative to wild-type Fc (fold) for this record: Fc variant F243L R255L D270E P396L (other, UniProt P01857-1 99-330, looked up, name in EU numbering, domain: Fc region; positions are EU index) EPKSCDKTHTCPPCPAPELLGGPSVFLLPPKPKDTLMISLTPEVTCVVVDVSHEEPEVKFNWYVDGVEVHNAKTKPREEQYNSTYRVVSVLTVLHQDWLNGKEYKCKVSNKALPAPIEKTISKAKGQPREPQVYTLPPSRDELTKNQVSLTCLVKGFYPSDIAVEWESNGQPENNYKTTPLVLDSDGSFFLYSKLTVDKSRWQQGNVFSCSVMHEALHNHYTQKSLSLSPGK
1.64
